Just for reference, patent US20100160369A1 is where these values come from.

- subject.of.test: S1P1 (Homo sapiens, UniProt P21453)
- Sequence (P21453 whole entry): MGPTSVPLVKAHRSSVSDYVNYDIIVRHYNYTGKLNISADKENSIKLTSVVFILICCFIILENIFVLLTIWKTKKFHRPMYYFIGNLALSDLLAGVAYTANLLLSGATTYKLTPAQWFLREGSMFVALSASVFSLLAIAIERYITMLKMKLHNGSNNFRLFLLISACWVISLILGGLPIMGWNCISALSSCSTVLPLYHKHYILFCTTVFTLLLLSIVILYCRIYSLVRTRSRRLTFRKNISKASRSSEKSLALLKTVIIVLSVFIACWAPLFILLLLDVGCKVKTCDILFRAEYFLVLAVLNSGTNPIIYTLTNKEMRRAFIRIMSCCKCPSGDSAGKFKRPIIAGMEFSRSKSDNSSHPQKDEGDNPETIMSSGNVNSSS
- assay.explanation: CNG cAMP Assay (Assay 1)
- Format: cell-based
- Design: host or cells: HEK293 cells expressing the CNG channel
- test.conditions: read-out: Assay 1 EC50
Would you mind telling me the reported EC50 of each entry?

OCCOc1ccc(-c2nnc(-c3cn4cc(C(F)(F)F)cc(Cl)c4n3)s2)c(Cl)c1 | ≤ 0.1 µM
FC(F)(F)c1ccc(-c2noc(-c3cn4cc(C(F)(F)F)cc(Cl)c4n3)n2)c(Cl)c1 | 0.5 to 1 µM
O=C(O)/C=C/c1cc(Cl)c(-c2noc(-c3cn4cc(C(F)(F)F)cc(Cl)c4n3)n2)cc1F | ≤ 0.1 µM

Fill in EC50 for each of the 7 molecules listed.
1. O=C(O)COc1ccc(-c2noc(-c3cn4cc(C(F)(F)F)cc(Cl)c4n3)n2)c(Cl)c1
2. CCOC(=O)C(C)Oc1cc(Cl)c(-c2noc(-c3cn4cc(C(F)(F)F)cc(Cl)c4n3)n2)cc1F (stereo not shown)
3. CC(CO)Oc1cc(Cl)c(-c2nc(-c3cn4cc(C(F)(F)F)cc(Cl)c4n3)no2)cc1F (stereo not shown)
4. CC(N)COc1ccc(-c2noc(-c3cn4cc(C(F)(F)F)cc(Cl)c4n3)n2)c(Cl)c1 (stereo not shown)
5. CS(=O)(=O)Nc1ccc(-c2noc(-c3cn4cc(C(F)(F)F)cc(Cl)c4n3)n2)cc1
6. NCCOc1ccc(-c2nnc(-c3cn4cc(C(F)(F)F)cc(Cl)c4n3)s2)c(Cl)c1
7. O=C(O)[C@H]1C[C@H](Oc2ccc(-c3noc(-c4cn5cc(C(F)(F)F)cc(Cl)c5n4)n3)c(Cl)c2)CN1

Outgoing:
0.1 to 0.5 µM
≤ 0.1 µM
≤ 0.1 µM
0.1 to 0.5 µM
≤ 0.1 µM
≤ 0.1 µM
≤ 0.1 µM

Fill in EC50 for each of the 3 molecules listed.
1. CC(O)COc1cc(Cl)c(-c2noc(-c3cn4cc(C(F)(F)F)cc(Cl)c4n3)n2)cc1Cl (stereo not shown)
2. O=C(O)C1CC1c1ccc(-c2noc(-c3cn4cc(C(F)(F)F)cc(Cl)c4n3)n2)cc1F (stereo not shown)
3. O=C(O)CC(O)c1ccc(-c2noc(-c3cn4cc(C(F)(F)F)cc(Cl)c4n3)n2)c(Cl)c1 (stereo not shown)

Outgoing:
["≤ 0.1 µM", "0.1 to 0.5 µM", "≤ 0.1 µM"]

----------
- subject.of.test: S1P1 (Homo sapiens)
- assay.explanation: CNG cAMP Assay (Assay 1)
- Assay type: cell-based
- Design: host or cells: HEK293 cells expressing the CNG channel
- test.conditions: read-out: Assay 1 EC50
- Procedure: Frozen HEK293 cells expressing the CNG channel and S1P1 (BD Biosciences, San Jose, Calif.) were thawed and plated into the wells of a black, clear bottom, 384-well CellBind plate (Corning, Corning, N.Y.) at 14,000 cells per well. […] Test compounds were tested at maximum concentrations of 10 μM. […] The T90/T0 ratio was determined for each concentration of the test compounds. The percent agonist activity was determined as [(test compound−DMSO alone control)/(NECA alone control−DMSO alone control)*100]. […]
measured.quantity: EC50

O=C(O)/C=C/c1ccc(-c2noc(-c3cn4cc(C(F)(F)F)cc(Cl)c4n3)n2)c(Cl)c1 | ≤ 100 nM

Fill in EC50 for each of the 7 compounds listed.
1. Cc1cc(CCC(=O)O)c(Cl)cc1-c1noc(-c2cn3cc(C(F)(F)F)cc(Br)c3n2)n1
2. OCC(O)COc1ccc(-c2nnc(-c3cn4cc(C(F)(F)F)cc(Cl)c4n3)s2)c(Cl)c1 (stereo not shown)
3. Cc1cc(CCC(=O)O)c(Cl)cc1-c1noc(-c2cn3cc(C(F)(F)F)cc(Cl)c3n2)n1
4. NCCOc1ccc(-c2noc(-c3cn4cc(C(F)(F)F)cc(Cl)c4n3)n2)c(Cl)c1
5. O=C(O)C1CN(Cc2ccc(-c3noc(-c4cn5cc(C(F)(F)F)cc(Cl)c5n4)n3)c(Cl)c2)C1
6. Fc1ccccc1-c1nc(-c2cn3cc(C(F)(F)F)cc(Cl)c3n2)no1
7. N#Cc1cc(Br)c2nc(-c3nc(-c4cc(F)c(CCC(=O)O)cc4Cl)no3)cn2c1

Outgoing:
1. ≤ 100 nM
2. ≤ 100 nM
3. ≤ 100 nM
4. ≤ 100 nM
5. 100 to 500 nM
6. 100 to 500 nM
7. ≤ 100 nM

Fill in EC50 for each of the 2 compounds listed.
1. Cc1c(I)ccc2nc(-c3nc(-c4cc(F)c(CCC(=O)O)cc4Cl)no3)cn12
2. CS(=O)(=O)Cc1ccc(-c2noc(-c3cn4cc(C(F)(F)F)cc(Cl)c4n3)n2)c(Cl)c1

Outgoing:
≤ 100 nM
≤ 100 nM
